Cited source for all entries: patent US10487071B2

Test system: Polaribacter sp. (TC5)
TEST_DESCRIPTION: Anti-adhesion test, strain TC5
Assay type: cell-based
SETUP_CONDITIONS: 15 h, 200 μM
Assign labels as follows, please: Fulfilled for activity at 200 µM below 40%; Not fulfilled for activity at 200 µM equal to or exceeding 40%.

- CHEMICAL_SMILES: "CN(C)CCCOc1ccc(CCn2cc(-c3ccc(-c4cn(CCc5ccc(OCCCN(C)C)cc5)nn4)cc3)nn2)cc1"
  CLASS_ASSIGNMENT: "Not fulfilled"
- CHEMICAL_SMILES: "CN(C)CCCOc1ccc(-n2cc(-c3ccc(-c4cn(-c5ccc(OCCCN(C)C)c(Br)c5)nn4)cc3)nn2)cc1Br"
  CLASS_ASSIGNMENT: "Fulfilled"
- CHEMICAL_SMILES: "CN(C)CCCOc1ccc(CCn2cc(-c3ccc(-c4cn(CCc5ccc(OCCCN(C)C)c(Cl)c5)nn4)cc3)nn2)cc1Cl"
  CLASS_ASSIGNMENT: "Not fulfilled"
- CHEMICAL_SMILES: "CN(C)CCCOc1c(Br)cc(CCn2cc(-c3ccc(-c4cn(CCc5cc(Br)c(OCCCN(C)C)c(Br)c5)nn4)cc3)nn2)cc1Br"
  CLASS_ASSIGNMENT: "Fulfilled"
- CHEMICAL_SMILES: "CN(C)CCCOc1ccc(CCCn2cc(-c3ccc(-c4cn(CCCc5ccc(OCCCN(C)C)c(Br)c5)nn4)cc3)nn2)cc1Br"
  CLASS_ASSIGNMENT: "Not fulfilled"
- CHEMICAL_SMILES: "CN(C)CCOc1ccc(CCn2cc(-c3ccc(-c4cn(CCc5ccc(OCCN(C)C)c(I)c5)nn4)cc3)nn2)cc1I"
  CLASS_ASSIGNMENT: "Fulfilled"
- CHEMICAL_SMILES: "Oc1ccc(CCn2cc(-c3ccc(-c4cn(CCc5ccc(O)c(I)c5)nn4)cc3)nn2)cc1I"
  CLASS_ASSIGNMENT: "Fulfilled"
